These data points were gathered from paper PMC4407702.

assay: Transepithelial transport across Caco-2 cell monolayers; type: in vitro ADME; details: human, Caco-2
value_kind: Papp A→B at 3 h, 23.5 μM (×10⁻⁶ cm/s)

compound="O=C1O[C@H]([C@@H](O)CO)C(O)=C1O [AA, L-Ascorbic acid]" value_kind="Papp A→B at 3 h, 23.5 μM" measured_number=17.6
